Test system: Chordin-like protein 2 (CHRDL2)
Test: CHRDL2 small-molecule binders, primary screen, biochemical, small-molecule microarray, 635 nm fluorescence (AID 1126);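 note: printed compound slides probed with Chrdl2 protein at 4 µg/mL for 1 h at 4 C; score merges 667 nm emission intensity with signal to noise over three replicate slides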
Conditions: small-molecule microarray binding, fluorescence 635 nm; higher = more signal
attribute-measured: composite z-score
Respond using a number only.

Task item: What does the record list as composite z-score for `C=C(CCCC)/C(=C/C[C@H](OC(=O)c1ccncc1)c1cccc(OCCO)c1)c1cc(C(=O)OC)ccc1OC` ?
Reply: 0.363

Task item: Entry to check: `CO[C@H]1COC(=O)[C@H](C)COC(=O)[C@H](Cc2ccccc2)NC(=O)CC=C[C@H]1C`
Reply: 1.53

Task item: Entry to check: `CCC(=O)[C@]12O[C@@]3([C@@H]4C(=O)OCC[C@@H]41)N(CC)C(C)=C(C(=O)OC)[C@@H](c1ccccc1)N3C2=O`
Reply: 0.841

Task item: Entry to check: `CCN1C(C)=C(C(=O)OC)[C@@H](c2ccccc2)N2C(=O)[C@](O)(C(=O)OC)[C@@H](c3ccccc3)C(C(C)=O)=C12`
Reply: 0.708

Task item: Entry to check: `CC(C)[Si]1(C(C)C)O[C@@H](c2ccccc2)c2cc(C3CC3)nc(-c3ccc(Oc4ccccc4)cc3)c21`
Reply: -0.408

Task item: Entry to check: C=CCC(OC(C)=O)[C@@H]1[C@@H](N(Cc2ccc(-c3ccccc3)cc2)C(=O)c2ccc(-c3ccccc3)cc2)c2cc(OCCCO)ccc2N1C(=O)Cc1ccc(OC)cc1 (some centres not stated)
Reply: -0.0682

Task item: Entry to check: `O=C1O[C@H](c2ccccc2)[C@H](c2ccccc2)N2[C@H]1[C@@H](C(=O)NC[C@H](O)c1ccccc1)[C@]1(C(=O)Nc3ccc(C#CC4=CCCCC4)cc31)[C@H]2c1ccc(OCCO)cc1`
Reply: 0.424

Task item: Entry to check: `CO[C@@H]1COC(=O)[C@H](COCc2ccccc2)NC(=O)CC=C[C@@H](C)[C@H](OC)COC(=O)[C@H](COCc2ccccc2)NC(=O)CC=C[C@H]1C`
Reply: 1.1

Task item: Entry to check: `CC(C)=C1C(=O)C(c2ccccc2)=C2CN3C(=O)N(CCc4ccccc4)C(=O)[C@]3(Cc3ccccc3)[C@H]21`
Reply: -2.04

Task item: Entry to check: `CCCC=C(CCC)[C@@H](NS(=O)(=O)c1cccc(C(F)(F)F)c1)c1ccc(C(=O)OC)cc1`
Reply: -1.35

Task item: Entry to check: `COC(=O)[C@@]1(Cc2ccc(OC)cc2)[C@H]2c3cc(C(=O)N(C)C)n(Cc4ccc(C)c(F)c4F)c3C[C@H]2CN1C(=O)c1ccccc1`
Reply: -1.22

Task item: Entry to check: `CN(C)CCCC[C@@H]1NC(=O)[C@@H]2C[C@H](C(=O)O)[C@H](c3ccc(O)cc3)N2C1=O`
Reply: 0.917

Task item: Entry to check: CN1C(=O)C2C=CC(C(O)c3ccc(N(C)C)cc3)N(Nc3ccc([N+](=O)[O-])cc3[N+](=O)[O-])C2C1=O (configuration not stated)
Reply: 0.556

Task item: Entry to check: C=CC[C@]1(C(=O)NCC(O)CO)N=C(c2ccc(OCCCO)cc2)O[C@H]1c1ccccc1 (some centres not stated)
Reply: -1.43

Task item: Entry to check: `CO[C@@H]1COC(=O)[C@H](C)NC(=O)CC=C[C@@H](C)[C@H](NS(=O)(=O)c2ccc(C)cc2)COC(=O)CC=C[C@@H]1C`
Reply: -0.0932

Task item: Entry to check: CN1C(=O)C2C=CC(C(O)C3CC=CCC3)N(Nc3ccccc3)C2C1=O (configuration not stated)
Reply: 0.912

Task item: Entry to check: `O=C1O[C@@H](c2ccccc2)[C@@H](c2ccccc2)N2[C@@H](c3ccccc3OCCO)[C@]3(C(=O)Nc4ccc(C#CC5=CCCCC5)cc43)[C@@H](C(=O)O)[C@H]12`
Reply: -0.241

Task item: Entry to check: `C=CCNC(=O)[C@@H]1[C@H]2C(=O)O[C@H](c3ccccc3)[C@H](c3ccccc3)N2[C@H](c2ccc(OCCO)cc2)[C@@]12C(=O)N(C(=O)OCCOC)c1ccc(C#CC3(O)CCCCCC3)cc12`
Reply: -0.0335

Task item: Entry to check: `COCCOC(=O)N1C(=O)[C@@]2(c3cc(C#CCCO)ccc31)[C@H](c1ccc(OCCO)cc1)N1[C@H](c3ccccc3)[C@H](c3ccccc3)OC(=O)[C@H]1[C@@H]2C(=O)NC[C@H](O)c1ccccc1`
Reply: 0.716

Task item: Entry to check: `CC(C)[Si](OCC[C@H]1O[C@]2(C(=O)N(Cc3ccccc3)c3ccccc32)[C@@H](C)[C@@H]1[Si](C)(C)O)(C(C)C)C(C)C`
Reply: -0.0644

Task item: Entry to check: C=CCC(OC(C)=O)[C@@H]1[C@@H](N(Cc2cc3ccccc3o2)C(=O)c2ccc(C)cc2)c2cc(OCCCO)ccc2N1C(=O)c1ccc2ccccc2n1 (some centres not stated)
Reply: 0.194

Task item: Entry to check: `CO[C@@H]1COC(=O)CC=C[C@@H](C)[C@H](OC)COC(=O)CC=C[C@H]1C`
Reply: 1.48

Task item: Entry to check: `O=C1O[C@H](c2ccccc2)[C@H](c2ccccc2)N2[C@H]1[C@@H](C(=O)NC[C@H](O)c1ccccc1)[C@]1(C(=O)Nc3ccc(C#CC4(O)CCCCCC4)cc31)[C@H]2c1ccc(OCCO)cc1`
Reply: 0.088

Task item: Entry to check: `Cc1ccc([C@@H]2CC=C(C(=O)O)[C@H](c3ccccc3)N2S(=O)(=O)c2ccc(C)cc2)cc1`
Reply: -2.11

Task item: Entry to check: `COC(=O)C(CC#Cc1ccc2c(c1)[C@]1(C(=O)N2)[C@H](C(=O)N2CCCCCCC2)[C@H]2C(=O)O[C@H](c3ccccc3)[C@H](c3ccccc3)N2[C@@H]1c1ccc(O)cc1)C(=O)OC`
Reply: -1.32

Task item: Entry to check: COc1ccc(C(O)C2C=CC3C(=O)N(C)C(=O)C3N2N2CCCCC2)cc1OCc1ccccc1 (configuration not stated)
Reply: -0.651

Task item: Entry to check: COC(=O)c1ccc(C#CC(NP(=O)(c2ccccc2)c2ccccc2)c2ccccc2)cc1 (configuration not stated)
Reply: 1.49
